EXPERIMENTAL DETAILS: In vivo pharmacokinetics of rat, single intravenous injection or oral administration by gavage
Parameters: species or system Male Sprague Dawley rats
COND: male, Sprague-Dawley, plasma, po, intragastric (gavage) 10 mg/kg
PROPERTY: half-life (h)

Answered cases to consult:
O=C(Nc1ccc[n+]([O-])c1)c1c(Oc2ccc(OC(F)(F)F)cc2)cc(C(F)(F)F)c(Cl)c1F | 5.72
O=C(Nc1ccc[n+]([O-])c1)c1cc(Cl)c(Cl)cc1Oc1ccc(OC(F)(F)F)cc1 | 2.51

[I] O=C(Nc1cc[n+](O)nc1)c1c(Oc2ccc(OC(F)(F)F)cc2)ccc(C(F)(F)F)c1F
[II] O=C(Nc1ccc[n+]([O-])c1)c1c(Oc2ccc(OC(F)(F)F)c(F)c2)cc(C(F)(F)F)c(Cl)c1F
[III] Cc1cc(F)ccc1Oc1cc(C(F)(F)F)c(Cl)cc1C(=O)Nc1ccc[n+]([O-])c1
[IV] O=C(Nc1cc[n+]([O-])nc1)c1c(Oc2ccc(OC(F)(F)F)c(F)c2)ccc(C(F)(F)F)c1F
[V] O=C(Nc1ccc[n+]([O-])c1)c1cc(Cl)c(C(F)(F)F)cc1Oc1ccc(OC(F)(F)F)cc1
INPUT: Rank the 5 compounds: largest half-life first, smallest last. Answer format: the labels, ordered as requested.
OUTPUT: I, IV, V, II, III
(I: 915 h, IV: 27.9 h, V: 12.2 h, II: 5.75 h, III: 2.47 h)

====

EXPERIMENTAL DETAILS: In vivo pharmacokinetics of rat, single intravenous injection or oral administration by gavage
Set-up: species or system Male Sprague Dawley rats
COND: male, Sprague-Dawley, plasma, intravenous administration 1 mg/kg
Protocol: In this experimental embodiment, the in vivo pharmacokinetics of rat was evaluated by a single intravenous injection or oral administration by gavage. […]
PROPERTY: clearance (mL/min/kg)

Cc1cc(F)ccc1Oc1cc(C(F)(F)F)c(Cl)cc1C(=O)Nc1ccc[n+]([O-])c1 [Embodiment A103] | 6.15
O=C(Nc1ccc[n+]([O-])c1)c1cc(Cl)c(Cl)cc1Oc1ccc(OC(F)(F)F)cc1 [Embodiment A11] | 11.4
O=C(Nc1ccc[n+]([O-])c1)c1c(Oc2ccc(OC(F)(F)F)c(F)c2)cc(C(F)(F)F)c(Cl)c1F [Embodiment A84] | 0.91
O=C(Nc1ccc[n+]([O-])c1)c1cc(Cl)c(C(F)(F)F)cc1Oc1ccc(OC(F)(F)F)cc1 [Embodiment A69] | 0.3

[I] O=C(Nc1cc[n+](O)nc1)c1c(Oc2ccc(OC(F)(F)F)cc2)ccc(C(F)(F)F)c1F [Embodiment A46]
[II] O=C(Nc1cc[n+]([O-])nc1)c1c(Oc2ccc(OC(F)(F)F)c(F)c2)ccc(C(F)(F)F)c1F [Embodiment A56]
[III] O=C(Nc1ccc[n+]([O-])c1)c1c(Oc2ccc(OC(F)(F)F)cc2)cc(C(F)(F)F)c(Cl)c1F [Embodiment A68]
INPUT: Rank the items in ascending order with respect to clearance. Answer format: the labels, ordered as requested.
OUTPUT: III, I, II
(III: 0.5 mL/min/kg, I: 1.08 mL/min/kg, II: 1.74 mL/min/kg)

====

TESTED TARGET: NaV1.8 (Homo sapiens, UniProt Q9Y5Y9)
Construct: expressed in transfected cells
Sequence (Q9Y5Y9 whole entry): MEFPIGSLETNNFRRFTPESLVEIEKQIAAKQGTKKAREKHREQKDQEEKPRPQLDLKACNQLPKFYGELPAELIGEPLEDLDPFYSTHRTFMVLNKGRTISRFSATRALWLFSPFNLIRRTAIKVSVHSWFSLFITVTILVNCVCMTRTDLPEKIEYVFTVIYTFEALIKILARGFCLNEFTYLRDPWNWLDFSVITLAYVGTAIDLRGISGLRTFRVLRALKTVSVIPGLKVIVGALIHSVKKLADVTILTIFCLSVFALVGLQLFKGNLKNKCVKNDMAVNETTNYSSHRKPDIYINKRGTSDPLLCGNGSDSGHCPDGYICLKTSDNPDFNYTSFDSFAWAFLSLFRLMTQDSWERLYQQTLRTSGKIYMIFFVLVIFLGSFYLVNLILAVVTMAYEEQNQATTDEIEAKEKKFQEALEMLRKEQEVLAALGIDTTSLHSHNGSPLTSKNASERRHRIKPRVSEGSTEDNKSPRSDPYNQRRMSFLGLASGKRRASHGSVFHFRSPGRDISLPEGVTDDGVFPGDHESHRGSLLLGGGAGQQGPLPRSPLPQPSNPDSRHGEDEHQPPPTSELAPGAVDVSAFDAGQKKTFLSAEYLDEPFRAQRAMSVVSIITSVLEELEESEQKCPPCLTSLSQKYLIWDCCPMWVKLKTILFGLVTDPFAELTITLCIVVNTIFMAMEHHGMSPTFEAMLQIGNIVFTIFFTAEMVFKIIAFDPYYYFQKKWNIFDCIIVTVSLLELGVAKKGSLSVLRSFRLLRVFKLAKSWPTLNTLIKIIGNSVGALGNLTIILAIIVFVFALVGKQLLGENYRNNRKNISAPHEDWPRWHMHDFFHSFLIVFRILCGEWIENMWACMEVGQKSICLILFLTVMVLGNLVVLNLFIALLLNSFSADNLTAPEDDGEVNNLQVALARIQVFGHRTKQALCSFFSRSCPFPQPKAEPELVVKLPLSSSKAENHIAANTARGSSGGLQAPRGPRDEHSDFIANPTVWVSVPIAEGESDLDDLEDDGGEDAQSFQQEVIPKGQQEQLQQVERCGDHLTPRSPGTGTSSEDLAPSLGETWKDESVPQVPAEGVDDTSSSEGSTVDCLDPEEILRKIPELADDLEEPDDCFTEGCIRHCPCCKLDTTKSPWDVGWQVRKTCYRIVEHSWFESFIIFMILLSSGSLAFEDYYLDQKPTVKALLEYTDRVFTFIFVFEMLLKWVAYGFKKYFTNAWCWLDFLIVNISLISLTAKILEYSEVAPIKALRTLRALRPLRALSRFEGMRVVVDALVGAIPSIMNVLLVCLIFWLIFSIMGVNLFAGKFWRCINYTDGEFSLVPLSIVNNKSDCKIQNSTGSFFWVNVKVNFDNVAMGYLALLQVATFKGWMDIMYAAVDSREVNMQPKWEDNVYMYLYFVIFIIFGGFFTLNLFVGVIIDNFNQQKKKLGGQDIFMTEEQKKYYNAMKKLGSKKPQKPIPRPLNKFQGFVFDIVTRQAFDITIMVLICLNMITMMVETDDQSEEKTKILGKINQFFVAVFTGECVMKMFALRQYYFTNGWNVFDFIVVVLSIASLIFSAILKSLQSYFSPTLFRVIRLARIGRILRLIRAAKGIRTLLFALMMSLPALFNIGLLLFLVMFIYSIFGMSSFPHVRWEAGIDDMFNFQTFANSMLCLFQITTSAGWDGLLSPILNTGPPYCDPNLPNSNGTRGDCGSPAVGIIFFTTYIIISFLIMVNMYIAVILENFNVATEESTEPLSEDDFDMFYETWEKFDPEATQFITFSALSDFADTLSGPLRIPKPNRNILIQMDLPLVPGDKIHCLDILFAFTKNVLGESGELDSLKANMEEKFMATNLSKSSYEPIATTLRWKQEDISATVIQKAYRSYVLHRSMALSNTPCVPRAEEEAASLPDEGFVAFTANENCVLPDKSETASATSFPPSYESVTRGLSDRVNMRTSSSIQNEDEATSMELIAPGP
EXPERIMENTAL DETAILS: Whole-cell patch clamp blocking activity against NaV1.8 channel current
Format: cell-based
COND: against NaV1.8 at 100 nM, CHO cell line stably expressing Nav1.8, patch clamp
PROPERTY: Blocking rate (%) @100 nM

Cc1cc(F)ccc1Oc1cc(S(F)(F)(F)(F)F)ccc1C(=O)Nc1ccc[n+]([O-])c1 | 81.85
Cc1cc(F)ccc1Oc1cc(C(F)(F)F)c(Cl)c(F)c1C(=O)Nc1ccc[n+]([O-])c1 | 97.93
O=C(Nc1ccc[n+]([O-])c1)c1c(Oc2ccc(F)cc2C2CC2)cc(C(F)(F)F)c(Cl)c1F | 99.42
O=C(Nc1cc[n+]([O-])nc1)c1c(Oc2ccc(OC(F)F)cc2)ccc(C(F)(F)F)c1F | 85.63
O=C(Nc1ccc[n+]([O-])c1)c1c(Oc2ccc(OC(F)(F)F)cc2)cnc(C(F)(F)F)c1Cl | 93.13
O=C(Nc1cc[n+]([O-])cc1)c1c(Oc2ccc(OC(F)(F)F)cc2)ccc(C(F)(F)F)c1F | 77.61
O=C(Nc1ccc[n+]([O-])c1)c1c(Oc2ccc(OC(F)(F)F)cc2)cc(Cl)c(C(F)(F)F)c1F | 99.91
O=C(Nc1cc[n+]([O-])cc1)c1c(Oc2ccc(OC(F)(F)F)cc2)cc(Cl)c(Cl)c1F | 97.60
O=C(Nc1ccc[n+]([O-])c1)c1c(Oc2ccc(OC(F)(F)F)c(F)c2)cc(C(F)(F)F)c(Cl)c1F | 99.14
O=C(Nc1ccn[n+]([O-])c1)c1c(Oc2ccc(OC(F)(F)F)cc2)ccc(I)c1F | 91.28
O=C(Nc1cc[n+]([O-])nc1)c1c(Oc2ccc(OC(F)(F)F)cc2)ccc(I)c1F | 97.04
O=C(Nc1ccc[n+]([O-])c1)c1cc(Cl)c(C(F)(F)F)cc1Oc1ccc(F)cc1OC1CC1 | 96.92
O=C(Nc1ccn[n+]([O-])c1)c1c(Oc2ccc(OC(F)(F)F)cc2)ccc(Br)c1F | 90.16
O=C(Nc1ccc[n+]([O-])c1)c1c(Cl)cc(C(F)(F)F)cc1Oc1ccc(OC(F)(F)F)cc1 | 87.63
O=C(Nc1ccc[n+]([O-])c1)c1c(Oc2ccc(OC(F)(F)F)cc2)ccc(Cl)c1F | 88.87
